Collected IC50 values appear next to each entry.
molecular target: Histone deacetylase 1 (Homo sapiens); assay: Inhibition of recombinant human C-terminal FLAG/His-tagged HDAC1 (1 to 482 residues) expressed in Sf9 insect cells using fluor de lys SIRT1 as substrate preincubated for 5 mins followed by substrate addition and measured after 30 mins by fluorescence assay
Sequence (Q13547 whole entry, the tested form may be a part): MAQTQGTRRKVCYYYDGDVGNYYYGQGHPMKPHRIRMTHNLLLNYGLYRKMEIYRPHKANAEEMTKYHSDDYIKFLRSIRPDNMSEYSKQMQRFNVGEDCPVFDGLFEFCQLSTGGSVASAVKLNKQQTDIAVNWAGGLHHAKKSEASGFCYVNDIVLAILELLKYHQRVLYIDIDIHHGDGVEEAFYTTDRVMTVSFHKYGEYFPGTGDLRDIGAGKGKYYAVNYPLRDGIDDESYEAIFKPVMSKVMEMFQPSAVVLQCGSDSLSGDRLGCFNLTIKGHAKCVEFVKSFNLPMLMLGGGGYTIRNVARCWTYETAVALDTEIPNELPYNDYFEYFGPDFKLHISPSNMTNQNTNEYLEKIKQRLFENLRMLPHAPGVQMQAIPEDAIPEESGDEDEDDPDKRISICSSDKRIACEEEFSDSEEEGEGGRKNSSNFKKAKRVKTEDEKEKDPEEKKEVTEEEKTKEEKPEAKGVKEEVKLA
Report the value in nM with no unit label.

| compoundSmiles | IC50, nM |
| --- | --- |
| O=C(NO)c1ccc(Nc2c3ccccc3nc3ccccc23)cc1 | 340 |

Problem: # get_value(readout= IC50, system= Histone deacetylase 1 (Homo sapiens)) for O=C(NO)c1ccc(Nc2c3ccccc3nc3ccc(Br)cc23)cc1
Result: 90

====

biological target: Amyloid-beta precursor protein (Homo sapiens); experiment: Inhibition of amyloid beta (1 to 42) (unknown origin) self aggregation after 24 hrs by thioflavin-T fluorescence method
Sequence (P05067 whole entry): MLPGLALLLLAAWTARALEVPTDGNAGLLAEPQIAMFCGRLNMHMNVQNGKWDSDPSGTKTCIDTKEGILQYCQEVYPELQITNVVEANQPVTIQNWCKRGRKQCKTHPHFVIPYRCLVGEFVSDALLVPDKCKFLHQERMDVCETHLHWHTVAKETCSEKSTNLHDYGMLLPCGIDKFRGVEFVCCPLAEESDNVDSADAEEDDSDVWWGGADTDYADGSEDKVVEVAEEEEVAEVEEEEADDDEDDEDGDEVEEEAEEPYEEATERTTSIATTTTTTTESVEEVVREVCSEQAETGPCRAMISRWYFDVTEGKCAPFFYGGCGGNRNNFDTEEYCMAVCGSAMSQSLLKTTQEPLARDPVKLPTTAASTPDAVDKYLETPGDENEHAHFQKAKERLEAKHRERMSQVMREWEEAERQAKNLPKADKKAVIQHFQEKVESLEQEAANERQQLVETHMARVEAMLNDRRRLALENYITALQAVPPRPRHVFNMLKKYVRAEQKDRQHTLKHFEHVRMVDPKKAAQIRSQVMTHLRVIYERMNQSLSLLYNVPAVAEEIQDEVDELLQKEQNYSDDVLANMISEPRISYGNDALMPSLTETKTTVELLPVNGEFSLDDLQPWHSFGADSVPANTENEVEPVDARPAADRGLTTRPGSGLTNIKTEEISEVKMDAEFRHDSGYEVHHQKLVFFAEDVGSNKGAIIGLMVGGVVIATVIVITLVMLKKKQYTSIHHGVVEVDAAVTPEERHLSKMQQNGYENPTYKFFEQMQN
measuredProperty: pIC50
On this scale, pIC50 is minus log10 of a concentration expressed in M (mol/L).

# count of solved cases: 6
| compoundSmiles | pIC50 |
| --- | --- |
| O=C(NO)c1ccc(Nc2c3ccccc3nc3ccc(OCc4ccccc4)cc23)cc1 | 5.52 |
| O=C(NO)c1ccc(Nc2c3ccccc3nc3ccc(OC(F)(F)F)cc23)cc1 | 5.46 |
| O=c1c(O)c(-c2ccc(O)cc2O)oc2cc(O)cc(O)c12 | 5.07 |
| O=C(NO)c1ccc(Nc2c3ccccc3nc3ccccc23)cc1 | 5.52 |
| COc1cc2nc3ccccc3c(Nc3ccc(C(=O)NO)cc3)c2c(OC)c1OC | 4.89 |
| COc1ccc2nc3cc(Cl)ccc3c(Nc3ccc(C(=O)NO)cc3)c2n1 | 4.46 |

We now examine a further compound.
Problem: Record request: pIC50 value, item O=C(NO)c1ccc(Nc2c3ccccc3nc3ccc(Br)cc23)cc1
Result: 5.96

====

target: Class 1 histone deacetylase (Homo sapiens, UniProt Q13547+O15379+Q92769+Q9BY41); experiment: Inhibition of class 1 HDAC in human HeLa cell nuclear extract using Boc-Lys(Ac)-AMC as substrate preincubated for 5 mins followed by substrate addition and measured after 30 mins by fluorescence assay; assay type: cell-based
API: label(entry) gives Condition met if the entry's IC50 is strictly smaller than 600 nM; on equality or larger values it gives Condition not met.

The examples below pair each entry with its known result.
| compoundSmiles | assignedCategory |
| --- | --- |
| O=C(NO)c1ccc(Nc2c3ccccc3nc3ccccc23)cc1 | Condition met |
| O=C(NO)c1ccc(Nc2c3ccccc3nc3ccc(OCc4ccccc4)cc23)cc1 | Condition not met |
| O=C(NO)c1ccc(Nc2c3c(nc4ccccc24)CCCC3)cc1 | Condition not met |

Problem: IC50 strictly < 600 nM for this compound? O=C(NO)c1cccc(Nc2c3ccccc3nc3ccccc23)c1
Result: Condition not met

Problem: Input O=C(NO)c1ccc(Nc2c3ccccc3nc3ccc(Br)cc23)cc1 ; condition: IC50 strictly below 600 nM. Does it hold?
Result: Condition met

Problem: Is the reported IC50 for O=C(NO)c1ccc(Nc2c3ccccc3nc3ccc(OC(F)(F)F)cc23)cc1 strictly below 600 nM?
Result: Condition not met

Problem: Does O=C(Cc1ccc(Nc2c3ccccc3nc3ccccc23)cc1)NO have IC50 strictly under 600 nM?
Result: Condition not met

Problem: Given the entry COc1ccc2nc3cc(Cl)ccc3c(Nc3ccc(C(=O)NO)cc3)c2n1 , would its reported IC50 be below 600 nM?
Result: Condition not met

Problem: Please state whether IC50 is below 600 nM for COc1cc2nc3ccccc3c(Nc3ccc(C(=O)NO)cc3)c2c(OC)c1OC
Result: Condition not met

Problem: State whether 600 nM exceeds IC50 recorded for O=C(CCc1ccc(Nc2c3ccccc3nc3ccccc23)cc1)NO .
Result: Condition met

Problem: Just wondering, is IC50 of O=C(NO)c1ccc(Nc2c3ccccc3nc3ccc(F)cc23)cc1 below 600 nM?
Result: Condition met

====

molecular target: Histone deacetylase 4 (Homo sapiens); assay: Inhibition of recombinant human N-terminal GST-tagged/C-terminal His-tagged HDAC4 (627 to 1084 residues) expressed in baculovirus expression system using Boc-Lys(TFA)-AMC as substrate preincubated for 5 mins followed by substrate addition and measured after 30 mins by fluorescence assay
Sequence (P56524 whole entry, the tested form may be a part): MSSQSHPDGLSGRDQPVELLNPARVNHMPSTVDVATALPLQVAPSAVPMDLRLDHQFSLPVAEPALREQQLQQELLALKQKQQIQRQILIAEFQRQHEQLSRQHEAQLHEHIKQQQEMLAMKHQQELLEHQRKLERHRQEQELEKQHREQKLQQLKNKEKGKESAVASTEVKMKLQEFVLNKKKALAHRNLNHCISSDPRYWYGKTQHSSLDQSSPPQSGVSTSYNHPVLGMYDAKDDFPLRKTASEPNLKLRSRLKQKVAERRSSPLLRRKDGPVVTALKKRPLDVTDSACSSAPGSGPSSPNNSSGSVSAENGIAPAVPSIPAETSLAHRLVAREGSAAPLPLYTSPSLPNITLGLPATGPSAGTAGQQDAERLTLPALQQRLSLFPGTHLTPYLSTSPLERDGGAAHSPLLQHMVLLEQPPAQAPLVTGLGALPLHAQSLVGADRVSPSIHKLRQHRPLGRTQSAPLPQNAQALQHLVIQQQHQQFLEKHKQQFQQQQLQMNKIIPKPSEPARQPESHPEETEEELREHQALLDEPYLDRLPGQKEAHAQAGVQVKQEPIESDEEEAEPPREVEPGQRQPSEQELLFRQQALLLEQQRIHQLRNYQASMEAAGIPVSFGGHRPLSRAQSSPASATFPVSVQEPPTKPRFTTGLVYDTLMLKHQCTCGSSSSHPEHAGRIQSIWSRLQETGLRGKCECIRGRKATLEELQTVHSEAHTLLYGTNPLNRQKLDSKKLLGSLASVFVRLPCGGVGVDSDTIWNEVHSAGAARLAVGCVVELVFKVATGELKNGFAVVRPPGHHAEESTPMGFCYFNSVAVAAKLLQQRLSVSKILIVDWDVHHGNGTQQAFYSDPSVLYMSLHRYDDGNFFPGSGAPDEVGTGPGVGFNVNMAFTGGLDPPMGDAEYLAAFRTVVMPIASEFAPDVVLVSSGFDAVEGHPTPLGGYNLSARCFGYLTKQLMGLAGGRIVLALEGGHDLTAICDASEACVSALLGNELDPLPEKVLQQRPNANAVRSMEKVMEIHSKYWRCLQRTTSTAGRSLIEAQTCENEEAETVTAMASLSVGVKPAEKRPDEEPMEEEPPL
measuredProperty: IC50 (µM)
# number only, unit µM dropped from output

| compoundSmiles | IC50 [µM] |
| --- | --- |
| O=C(CCc1ccc(Nc2c3ccccc3nc3ccccc23)cc1)NO | 7.06 |
| O=C(Cc1ccc(Nc2c3ccccc3nc3ccccc23)cc1)NO | 26.6 |
| O=C(NO)c1cccc(Nc2c3ccccc3nc3ccccc23)c1 | 29.4 |

Problem: For the compound shown here, O=C(NO)c1ccc(Nc2c3ccccc3nc3ccc(OCc4ccccc4)cc23)cc1 , give the reported IC50.
Result: 1.21

====

test: Half life in human liver microsomes at 1 uM preincubated for 3 mins followed by NADPH addition and measured up to 60 mins by LC-MS/MS analysis; format: ADME, Microsome; conditions: time <=63 min
half-life at 1 µM reference
Report as a plain number; the unit min is understood.

Worked set:
| molecule | unitLabel | observedMeasurement |
| --- | --- | --- |
| O=C(NO)c1ccc(Nc2c3ccccc3nc3ccc(Br)cc23)cc1 | min | 37.9 |
| C[C@]12CC[C@H]3[C@@H](CCC4=CC(=O)CC[C@@]43C)[C@@H]1CC[C@@H]2O [TESTOSTERONE] | min | 25.7 |

Problem: // returns reported half-life at 1 µM for input O=C(NO)c1ccc(Nc2c3ccccc3nc3ccccc23)cc1
Result: 33.9

====

target: UniProt P22303; assay: Inhibition of recombinant human C-terminal 6His-tagged AChE (Glu32 to Leu614 residues) expressed in CHO cells using acetylthiocholine iodide as substrate preincubated for 5 mins measured after 15 mins by DTNB reagent based assay
Sequence (P22303 whole entry): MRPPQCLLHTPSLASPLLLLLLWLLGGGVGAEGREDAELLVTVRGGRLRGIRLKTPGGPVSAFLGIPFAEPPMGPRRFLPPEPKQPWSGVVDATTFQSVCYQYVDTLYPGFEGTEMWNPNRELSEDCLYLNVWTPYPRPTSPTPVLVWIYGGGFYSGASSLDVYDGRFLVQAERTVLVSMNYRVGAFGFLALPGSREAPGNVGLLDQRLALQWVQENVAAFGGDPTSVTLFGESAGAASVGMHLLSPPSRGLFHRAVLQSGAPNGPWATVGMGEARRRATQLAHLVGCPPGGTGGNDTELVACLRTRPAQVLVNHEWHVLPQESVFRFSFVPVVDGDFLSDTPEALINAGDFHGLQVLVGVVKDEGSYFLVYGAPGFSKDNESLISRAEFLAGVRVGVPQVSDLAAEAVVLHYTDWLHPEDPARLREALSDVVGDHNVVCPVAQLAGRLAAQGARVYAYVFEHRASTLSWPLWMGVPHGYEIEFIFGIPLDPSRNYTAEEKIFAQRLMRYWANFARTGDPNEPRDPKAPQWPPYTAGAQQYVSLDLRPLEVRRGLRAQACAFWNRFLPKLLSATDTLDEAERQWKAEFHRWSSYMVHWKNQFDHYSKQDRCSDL
measuredProperty: IC50 (nM)
Quick reminder: number only, in nM, skip the unit.

| compoundSmiles | IC50 [nM] |
| --- | --- |
| COc1ccc2nc3cc(Cl)ccc3c(Nc3ccc(C(=O)NO)cc3)c2n1 | 9250 |
| COc1cc2nc3ccccc3c(Nc3ccc(C(=O)NO)cc3)c2c(OC)c1OC | 640 |
| O=C(NO)c1ccc(Nc2c3ccccc3nc3ccc(OCc4ccccc4)cc23)cc1 | 2640 |

We next turn to a different compound, shown below.
Problem: Name the recorded IC50 for O=C(NO)c1ccc(Nc2c3ccccc3nc3ccc(F)cc23)cc1 .
Result: 600

====

biological target: Histone deacetylase 5 (Homo sapiens); assay: Inhibition of recombinant human C-terminal His-tagged HDAC5 (656 to 1122 residues) expressed in baculovirus infected Sf9 insect cells using fluorogenic HDAC 2A substrate preincubated for 5 mins followed by substrate addition and measured after 30 mins by fluorescence assay
Sequence (Q9UQL6 whole entry, the tested form may be a part): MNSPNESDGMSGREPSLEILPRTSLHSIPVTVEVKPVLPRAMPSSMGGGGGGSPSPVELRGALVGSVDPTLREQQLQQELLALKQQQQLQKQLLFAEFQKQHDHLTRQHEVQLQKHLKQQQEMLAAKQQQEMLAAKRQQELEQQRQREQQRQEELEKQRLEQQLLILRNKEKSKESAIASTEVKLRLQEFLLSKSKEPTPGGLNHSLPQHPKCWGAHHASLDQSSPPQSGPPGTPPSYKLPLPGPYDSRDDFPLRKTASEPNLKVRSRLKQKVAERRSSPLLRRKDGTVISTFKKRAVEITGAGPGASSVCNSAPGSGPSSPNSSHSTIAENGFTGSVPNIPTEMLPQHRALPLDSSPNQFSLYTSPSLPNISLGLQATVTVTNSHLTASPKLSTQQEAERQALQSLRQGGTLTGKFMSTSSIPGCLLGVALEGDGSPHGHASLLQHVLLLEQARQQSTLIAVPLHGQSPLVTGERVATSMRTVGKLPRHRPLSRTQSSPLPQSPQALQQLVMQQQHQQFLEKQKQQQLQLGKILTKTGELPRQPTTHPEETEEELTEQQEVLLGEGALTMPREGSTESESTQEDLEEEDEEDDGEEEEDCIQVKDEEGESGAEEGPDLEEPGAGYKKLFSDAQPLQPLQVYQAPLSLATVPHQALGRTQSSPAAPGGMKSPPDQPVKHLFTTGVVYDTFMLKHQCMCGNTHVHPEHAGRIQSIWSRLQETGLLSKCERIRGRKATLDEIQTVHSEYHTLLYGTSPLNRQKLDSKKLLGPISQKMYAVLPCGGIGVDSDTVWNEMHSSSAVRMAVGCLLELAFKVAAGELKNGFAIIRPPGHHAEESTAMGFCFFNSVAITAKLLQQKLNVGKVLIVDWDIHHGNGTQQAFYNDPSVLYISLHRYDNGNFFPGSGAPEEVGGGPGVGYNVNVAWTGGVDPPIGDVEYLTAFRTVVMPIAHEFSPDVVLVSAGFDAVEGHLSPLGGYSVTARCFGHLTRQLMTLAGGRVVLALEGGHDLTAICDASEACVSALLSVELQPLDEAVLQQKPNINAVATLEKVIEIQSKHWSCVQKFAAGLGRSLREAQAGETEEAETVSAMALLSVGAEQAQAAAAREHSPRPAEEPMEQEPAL
IC50 by entry:
Please state the figure in µM; there is no need to write the unit.

Answered examples (2):
| compoundSmiles | assayedSystem | measuredProperty | observedMeasurement |
| --- | --- | --- | --- |
| O=C(NO)c1ccc(Nc2ccnc3ccccc23)cc1 | Histone deacetylase 5 (Homo sapiens) | IC50 | 3.37 |
| COc1cc2nc3ccccc3c(Nc3ccc(C(=O)NO)cc3)c2c(OC)c1OC | Histone deacetylase 5 (Homo sapiens) | IC50 | 4.23 |

Please turn your attention to the following entry.
Problem: Observed IC50 on Histone deacetylase 5 (Homo sapiens) for O=C(NO)c1ccc(Nc2c3ccccc3nc3ccc(F)cc23)cc1 , please.
Result: 0.69

====

target: Histone deacetylase 4 (Homo sapiens); assay: Inhibition of recombinant human N-terminal GST-tagged/C-terminal His-tagged HDAC4 (627 to 1084 residues) expressed in baculovirus expression system using Boc-Lys(TFA)-AMC as substrate preincubated for 5 mins followed by substrate addition and measured after 30 mins by fluorescence assay
measuredProperty: IC50 (µM)
Numbers only; they are read as µM.

| compoundSmiles | measuredProperty | observedMeasurement |
| --- | --- | --- |
| O=C(NO)c1ccc(Nc2c3ccccc3nc3ccccc23)cc1 | IC50 | 2.24 |
| O=C(NO)c1ccc(Nc2c3ccccc3nc3ccc(Br)cc23)cc1 | IC50 | 7.85 |
| O=C(NO)c1ccc(Nc2c3ccccc3nc3ccc(F)cc23)cc1 | IC50 | 3.04 |

Problem: Endpoint output: IC50 of COc1cc2nc3ccccc3c(Nc3ccc(C(=O)NO)cc3)c2c(OC)c1OC . Value?
Result: 15.7

Problem: Give the measured IC50 of O=C(NO)c1ccc(Nc2c3ccccc3nc3ccc(OC(F)(F)F)cc23)cc1 .
Result: 14.7

====

target: UniProt Q9UQL6; assay: Inhibition of recombinant human C-terminal His-tagged HDAC5 (656 to 1122 residues) expressed in baculovirus infected Sf9 insect cells using fluorogenic HDAC 2A substrate preincubated for 5 mins followed by substrate addition and measured after 30 mins by fluorescence assay
Recorded IC50 values for a group of molecules are listed next.
// note: answer is a bare numeric in µM

| compoundSmiles | IC50, µM |
| --- | --- |
| O=C(NO)c1ccc(Nc2c3c(nc4ccccc24)CCCC3)cc1 | 17.5 |
| O=C(CCc1ccc(Nc2c3ccccc3nc3ccccc23)cc1)NO | 2.58 |
| O=C(NO)c1ccc(Nc2c3ccccc3nc3ccccc23)cc1 | 0.85 |

Problem: Please give the measured IC50 for this molecule: O=C(NO)c1ccc(Nc2c3ccccc3nc3ccc(OC(F)(F)F)cc23)cc1
Result: 15.8
